System: rainbow trout (Oncorhynchus mykiss)
method.notes: Contribution of tissues to fish body burden
Format: in vivo
condition.label: fraction, Fish #1
measure.name: Contribution of Liver to the fish's body burden

> print(dat)
                                   compound  quantitative.readout
1               CCCCCCCCCN [P9, Nonylamine]                  0.09
2   CCCCCCCCCCCCCCCCN [P16, hexadecylamine]                  0.11
3  CCCCCCCCCN(C)C [T9, N,N-dimethylnonylamine]                  0.08
4  CCCCCCCCCCCCCN(C)C [T13, N,N-dimethyltridecylamine]                  0.05
5         CCCCCCCCCCCCN [P12, Dodecylamine]                  0.16
6       CCCCCCCCCCCCCN [P13, tridecylamine]                  0.24

Cited source: paper PMC7343282
